target.or.system: IDO in A431 cells (Homo sapiens)
Construct: endogenous in cells; host or cells: A431 cells, IFN-γ stimulated
Sequence (P14902 whole entry): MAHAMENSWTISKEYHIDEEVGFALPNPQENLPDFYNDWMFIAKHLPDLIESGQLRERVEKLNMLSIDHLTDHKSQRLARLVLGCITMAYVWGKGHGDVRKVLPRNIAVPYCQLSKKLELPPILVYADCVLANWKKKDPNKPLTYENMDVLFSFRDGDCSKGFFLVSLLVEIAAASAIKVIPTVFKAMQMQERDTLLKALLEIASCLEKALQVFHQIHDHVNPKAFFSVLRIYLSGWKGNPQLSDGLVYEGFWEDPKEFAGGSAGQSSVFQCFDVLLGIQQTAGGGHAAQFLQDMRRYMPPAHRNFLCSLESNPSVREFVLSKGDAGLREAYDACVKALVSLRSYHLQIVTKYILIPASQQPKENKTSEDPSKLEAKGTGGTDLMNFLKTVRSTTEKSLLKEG
protocol: IDO cell-based assay, kynurenine production in IFN-γ stimulated A431 cells
experimental.parameters: A-431, 24 h; final concentration of the compound 10 μM; rate relative to culture without compound
Structures can show the parent of a compound that is named as a salt.
Binary call on remaining activity at 10 µM with cut-off 10%: strictly below means true (1), and equality or higher means false (0).

Sample answers from the record:
Br.Br.N=C(N)SCc1ccsc1CSC(=N)N [Compound 31, dihydrobromide]	false (0)
N=C(N)SCc1ccccc1CC(=O)NCCC1CCCCC1 [Compound 69, hydrobromide]	false (0)
Br.N#Cc1ccc(CNC(=O)c2ccc(Br)cc2CSC(=N)N)cc1 [Compound 76, hydrobromide]	false (0)
N=C(N)[Se]Cc1ccc(Cl)cc1C[Se]C(=N)N [Compound 109, dihydrobromide]	false (0)
Clc1ccc(CN2CN=C(SCc3ccc(Br)cc3CSC3=NCN(Cc4ccc(Cl)c(Cl)c4)CN3)NC2)cc1Cl	true (1)

Just wondering, is remaining activity at 10 µM of COc1ccc(CN2CN=C(SCc3ccccc3CSC3=NCN(Cc4ccc(OC)cc4OC)CN3)NC2)c(OC)c1 below 10%?
true (1)

Answer whether the compound CNC(=O)c1cccnc1CSC(=N)N [Compound 100, hydrobromide] has remaining activity at 10 µM strictly less than 10%
false (0)

For this compound, is remaining activity at 10 µM lower than 10%? Clc1ccc(CCN2CN=C(SCc3ccccc3CSC3=NCN(CCc4ccc(Cl)cc4)CN3)NC2)cc1
true (1)

====

List of remaining activity at 10 µM values.
target.or.system: TDO in A172 cells (Homo sapiens, UniProt P48775)
Construct: endogenous in cells; host or cells: A172 cells
Sequence (P48775 whole entry): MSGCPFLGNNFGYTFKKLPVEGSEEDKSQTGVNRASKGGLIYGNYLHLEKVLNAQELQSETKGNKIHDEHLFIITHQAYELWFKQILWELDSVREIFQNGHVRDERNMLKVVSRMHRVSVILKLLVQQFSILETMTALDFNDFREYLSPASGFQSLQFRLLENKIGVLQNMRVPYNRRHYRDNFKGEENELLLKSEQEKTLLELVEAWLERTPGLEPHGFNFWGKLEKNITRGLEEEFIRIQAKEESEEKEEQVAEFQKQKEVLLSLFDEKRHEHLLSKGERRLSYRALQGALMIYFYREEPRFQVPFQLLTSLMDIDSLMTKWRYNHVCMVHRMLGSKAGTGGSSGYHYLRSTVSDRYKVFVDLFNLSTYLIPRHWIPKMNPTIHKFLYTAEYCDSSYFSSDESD
protocol: TDO cell-based assay, kynurenine production in A172 cells
experimental.parameters: A 172; final concentration of the compound 10 μM; rate relative to culture without compound
Structures can show the parent of a compound that is named as a salt.
Please give a number only; it is taken to be in %.

COc1cccc(CNC(=O)c2ccc(Br)cc2C[Se]C(=N)N)c1 [Compound 106, hydrobromide]	48
N=C(N)SCc1cc(F)c(F)cc1CSC(=N)N [Compound 131, dihydrobromide]	6
COc1ccc(CCN2CN=C(SCc3ccc(F)cc3CSC3=NCN(CCc4ccc(OC)cc4)CN3)NC2)cc1	16
N=C(N)SCCc1ccccc1CSC(=N)N [Compound 51, dihydrobromide]	25
Cl.Cl.N=C(N)SCc1ccccc1CSC(=N)N [Compound 1, dihydrochloride]	-3
N=C(N)SCc1sc2ccccc2c1CSC(=N)N [Compound 151, dihydrobromide]	76
Brc1ccc(CSC2=NCN(CCC3CCCCC3)CN2)c(CSC2=NCN(CCC3CCCCC3)CN2)c1	4
Cc1ccc(CNC(=O)c2ccc(Br)cc2CS/C(N)=N/c2ccc(F)c(Cl)c2)cc1 [Compound 91, hydrobromide]	26
Fc1ccc(CSC2=NCN(CCc3ccc(Cl)c(Cl)c3)CN2)c(CSC2=NCN(CCc3ccc(Cl)c(Cl)c3)CN2)c1	6
Clc1ccc(CCN2CN=C(SCc3cc(Cl)c(Cl)cc3CSC3=NCN(CCc4ccc(Cl)c(Cl)c4)CN3)NC2)cc1Cl	-1

Query the reported remaining activity at 10 µM for TDO in A172 cells (Homo sapiens, UniProt P48775); item: N/C(=N\c1ccc(F)cc1F)SCc1ccc(F)cc1CS/C(N)=N/c1ccc(F)cc1F [Compound 130, dihydrobromide]
9

Form: Entry = Clc1ccccc1CCN1CN=C(SCc2ccccc2CSC2=NCN(CCc3ccccc3Cl)CN2)NC1 | System = TDO in A172 cells (Homo sapiens, UniProt P48775) | remaining activity at 10 µM = ____
3

Query for TDO in A172 cells (Homo sapiens, UniProt P48775): what remaining activity at 10 µM does the record show for COCCNC(=O)c1ccc(Br)cc1CSC(=N)N [Compound 115, hydrobromide] ?
71

Record lookup: for TDO in A172 cells (Homo sapiens, UniProt P48775), what remaining activity at 10 µM belongs to N#Cc1ccc(CNC(=O)c2cccc(Br)c2CSC(=N)N)cc1 [Compound 111, hydrobromide] ?
87

So what remaining activity at 10 µM did N=C(N)SCc1ccccc1CC(=O)NCCc1ccccc1Cl [Compound 66, hydrobromide] get with TDO in A172 cells (Homo sapiens, UniProt P48775)?
74

Find the measured remaining activity at 10 µM: item N=C(N)SCc1nc2ccccc2nc1CSC(=N)N [Compound 5, dihydrobromide] , target or system TDO in A172 cells (Homo sapiens, UniProt P48775).
113
